Every entry's value here was drawn from PubChem BioAssay.

Each entry below lists one item and its recorded z-score value.
experiment: basal HepG2 mitochondrial membrane potential changes, profiling panel, cell-based, JC-1 fluorescence, 24 h, 100 nL compound (AID 1167); settings: higher = more signal

CC(CCN1CCCc2nc(C)c(C)cc21)=NO[C@H](C)c1cn([C@@H]2COC[C@H]2O)nn1
0.219
CCC1=NOC(CCC2CC(OC(=O)NCc3cccc4c3OCO4)CC3(CCCC(COC(=O)NCCc4ccc(Cl)cc4)O3)O2)C1 (centres undefined)
-0.803
CCN1C(=O)[C@H]2[C@H]3[C@H](O)[C@H](O)CC(=NNC(=O)OCc4ccccc4)[C@H]3CC[C@H]2C1=O
-0.559

Switching to the query record.
Incoming: Consider the compound COC(=O)CC=C[C@@H](C)[C@@H](C=NOC(C)CN1CCCc2nc(C)c(C)cc21)NS(=O)(=O)c1ccc(C)cc1 (some centres undefined) and give its recorded z-score.
Outgoing: -0.486

====

experiment: E. coli acrAB mutant growth effects, primary screen, E. coli filamentation inducers, strain DRC39, OD650, 48 h (AID 1179);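 further: screen aims at cell division blockers that make cells filament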; details: E. coli DRC39 delta-acrAB growth, higher = more signal, called active from +8 up or from −8 down
PARAMETER MEASURED: z-score
// return just the number, without any unit appended

CCOC(=O)[C@H](CC(C)C)NC(=O)CCC1CC(OC(=O)NCc2ccc3c(c2)OCO3)CC2(CCCC(COC(=O)NCCc3ccccc3OC)O2)O1 (stereo partly drawn)
-1.02

Incoming: Consider the molecule COc1ccc(O[C@H]2C=C[C@@H](c3ccccc3)O[C@@H]2CON=C2c3cc(OC)ccc3O[C@H](c3cccc(OC)c3)[C@H]2O)cc1 and give its recorded z-score.
Outgoing: -0.824

Incoming: Consider the molecule CC(C)CN1CCc2nc(-c3ccccc3)c3c(c2C1)CO[C@@H](C)C3 and give its recorded z-score.
Outgoing: -0.0811

Incoming: Consider the molecule C[C@@H](c1ccccc1)N1C(=O)[C@H]2[C@H]3[C@H](O)[C@H](O)CC(=NOCc4ccccc4)[C@@H]3CC[C@H]2C1=O and give its recorded z-score.
Outgoing: -0.0934

Incoming: Consider the molecule CCOC(=O)CCN1C(=O)[C@H]2[C@H]3[C@H](O)[C@H](O)CC(=NO[C@@H]4O[C@H](CO)[C@@H](O)[C@H](O)[C@H]4O)[C@H]3CC[C@H]2C1=O and give its recorded z-score.
Outgoing: -0.0907

Incoming: Consider the molecule C[C@@H]1C=CCC(=O)OC[C@H](C)C(=O)N[C@@H](Cc2ccccc2)C(=O)OC1 and give its recorded z-score.
Outgoing: -0.0419

Incoming: Consider the molecule C=CCOCC1CN2[C@@H](CC[C@@H](C)[C@@H]2c2ccc(Br)cc2)C(=O)O1 (stereo partly drawn) and give its recorded z-score.
Outgoing: -0.0542

Incoming: Consider the molecule CO[C@H]1COC(=O)[C@H](C)COC(=O)[C@@H](OCc2ccccc2)C=C[C@@H]1C and give its recorded z-score.
Outgoing: 0.636

====

test system: XIP peptide (Xip251-270) binding; experiment: small-molecule binders of XIP peptide, primary screen, biochemical, small-molecule microarray, fluorescence 635/667 nm, 0.1 µg/mL protein (AID 1182); settings: fluorescent protein binding, 635 nm, higher = more signal, called active from +8 up or from −8 down
Calls of active or inactive are those of the source.
PARAMETER MEASURED: composite z-score

Below: 10 molecules and their reported composite z-score.
COc1ccc(OC[C@@H](CO)OC)cc1
0.617 (inactive)
CCOC(=O)CCN1C(=O)[C@H]2[C@H]3[C@H](O)[C@H](O)CC(=NOCC=C(C)CCC=C(C)C)[C@H]3CC[C@H]2C1=O
-0.322 (inactive)
CCOC(=O)[C@H](CC(C)C)NC(=O)CCC1CC(OC(=O)NCc2ccc3c(c2)OCO3)CC2(CCCC(COC(=O)NCCC(C)C)O2)O1 (stereo partly specified)
0.554 (inactive)
CCOC(=O)[C@H](Cc1ccccc1)NC(=O)CCC1CC(OC(=O)NCCc2ccc(F)cc2)CC2(CCCC(COC(=O)NCCOc3ccccc3)O2)O1 (stereo partly specified)
-0.337 (inactive)
COC(=O)[C@@H]1CC[C@H](C)[C@@H](c2ccc(Br)cc2)N1C(=O)C(F)(F)F
0.0945 (inactive)
CC(=O)OC[C@H]1O[C@@H](ON=C(C)C)[C@H](OC(C)=O)[C@@H](OC(C)=O)[C@@H]1OC(C)=O
-0.0542 (inactive)
OC[C@H]1O[C@H](C#Cc2ccccc2)C=C[C@@H]1O
0.0849 (inactive)
COC(=O)[C@@H]1CC[C@H](C)[C@@H](c2ccc(C)cc2)N1C(=O)c1ccc(C=NO[C@@H](C)c2cc(-c3c(C)cc(C)cc3C)no2)cc1
-0.274 (inactive)
CC(CCN1CCc2nc(-c3ccccc3)c(-c3ccccc3)cc2C1)=NOC(C)CN1CCCc2nc(C)c(C)cc21 (stereo unspecified)
0.161 (inactive)
CO[C@H]1COC(=O)[C@H](C)COC(=O)[C@@H](OCc2ccccc2)C=C[C@@H]1C
0.277 (inactive)

Incoming: Consider the molecule O=C1[C@H]2[C@H]3[C@H](O)[C@H](O)CC(=NO[C@@H]4O[C@H](CO)[C@@H](O)[C@H](O)[C@H]4O)[C@@H]3CC[C@H]2C(=O)N1C[C@@H]1CCCO1 and give its recorded composite z-score.
Outgoing: 0.357 (inactive)

Incoming: Consider the molecule Cc1cc(C)c(-c2cc([C@H](C)ON=C[C@@H](C)[C@H](OCc3ccccc3)C(C)C)on2)c(C)c1 and give its recorded composite z-score.
Outgoing: -0.0022 (inactive)

Incoming: Consider the molecule O=C1C2=CC[C@H]3C(=O)N(C[C@@H]4CCCO4)C(=O)[C@H]3[C@H]2[C@H](O)[C@@H]2O[C@H]12 and give its recorded composite z-score.
Outgoing: -0.14 (inactive)
